TARGET UNDER TEST: P2Y purinoceptor 6 (Homo sapiens, UniProt Q15077)
Sequence (Q15077 whole entry): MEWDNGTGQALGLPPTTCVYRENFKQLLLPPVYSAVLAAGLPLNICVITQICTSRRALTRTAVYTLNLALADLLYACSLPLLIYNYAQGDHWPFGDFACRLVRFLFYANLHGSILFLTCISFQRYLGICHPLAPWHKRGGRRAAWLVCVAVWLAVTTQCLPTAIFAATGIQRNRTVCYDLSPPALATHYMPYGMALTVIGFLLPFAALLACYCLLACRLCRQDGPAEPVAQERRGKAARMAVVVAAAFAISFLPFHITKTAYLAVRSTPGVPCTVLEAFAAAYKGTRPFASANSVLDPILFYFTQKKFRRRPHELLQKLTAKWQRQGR
RUN DESCRIPTION: Agonist activity at P2Y6 receptor expressed in human 1321 cells at 100 uM by calcium mobilization assay
Type: functional, cell-based
The source made the active and inactive calls. The rule behind the calls is not given here.
OUTCOME MEASURE: Activity

Examples from the recorded data:
INSERT INTO measurements (compound, endpoint_result) VALUES
  ('O=c1ccn([C@@H]2O[C@H](COP(=O)(O)OP(=O)(O)OP(=O)(O)OP(=O)(O)OC[C@@H]3O[C@H](n4ccc(=O)[nH]c4=O)[C@@H](O)[C@H]3O)[C@@H]3OC(Cc4ccccc4)O[C@H]32)c(=O)[nH]1 (stereo partly specified)', '> 5%'),
  ('Nc1ncnc2c1ncn2[C@@H]1O[C@H](COP(=O)(O)O)[C@H]2O[C@@H](c3ccccc3)O[C@H]21', 'inactive'),
  ('O=C(Nc1ccccc1)Nc1ncnc2c1ncn2[C@@H]1O[C@H](COP(=O)(O)O)C2OC(C#Cc3ccccc3)OC21 (single isomer, unassigned)', 'inactive'),
  ('Nc1ccn([C@@H]2O[C@H](COP(=O)(O)OP(=O)(O)OP(=O)(O)OP(=O)(O)OC[C@@H]3O[C@H](n4ccc(=O)[nH]c4=O)[C@H]4OC(Cc5ccccc5)O[C@H]43)[C@H]3OC(Cc4ccccc4)O[C@H]32)c(=O)n1 (stereo partly specified)', 'inactive'),
  ('Nc1ncnc2c1ncn2[C@@H]1O[C@H](COP(=O)(O)O)[C@H]2OC(/C=C/c3ccccc3)O[C@H]21 (stereo partly specified)', 'inactive');

Consider the record given below.
Consider the compound O=C(Nc1ccccc1)Nc1ncnc2c1ncn2[C@@H]1O[C@H](COP(=O)(O)O)[C@@H](O)[C@H]1O . State its measured Activity. inactive

###

TARGET UNDER TEST: P2Y purinoceptor 2 (Homo sapiens, UniProt P41231)
Sequence (P41231 whole entry): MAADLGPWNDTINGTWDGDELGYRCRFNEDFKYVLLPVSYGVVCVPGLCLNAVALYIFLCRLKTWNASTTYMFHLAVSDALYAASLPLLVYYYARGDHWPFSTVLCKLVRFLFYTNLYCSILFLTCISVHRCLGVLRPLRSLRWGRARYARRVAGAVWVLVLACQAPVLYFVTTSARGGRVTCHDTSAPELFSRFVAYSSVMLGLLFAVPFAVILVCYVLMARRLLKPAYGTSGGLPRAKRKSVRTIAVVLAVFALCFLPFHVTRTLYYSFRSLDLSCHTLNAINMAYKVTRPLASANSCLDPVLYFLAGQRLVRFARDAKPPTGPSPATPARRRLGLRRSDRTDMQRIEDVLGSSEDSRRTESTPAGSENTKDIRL
RUN DESCRIPTION: Agonist activity at P2Y2 receptor expressed in human 1321 cells at 100 uM by calcium mobilization assay
Type: functional, cell-based
Active and inactive are the calls of the source. The rule behind the calls is not given here.
OUTCOME MEASURE: Activity

INSERT INTO assay_data (compound, endpoint_result) VALUES
  ('Nc1ncnc2c1ncn2[C@@H]1O[C@H](COP(=O)(O)OP(=O)(O)OP(=O)(O)OP(=O)(O)OC[C@@H]2O[C@H](n3cnc4c(N)ncnc43)[C@H]3OC(Cc4ccccc4)O[C@H]32)[C@H]2OC(Cc3ccccc3)O[C@H]21 (stereo partly drawn)', '> 5%'),
  ('Nc1ncnc2c1ncn2[C@@H]1O[C@H](COP(=O)(O)O)[C@H]2O[C@@H](c3ccccc3)O[C@H]21', 'inactive'),
  ('O=C(Nc1ccccc1)Nc1ncnc2c1ncn2[C@@H]1O[C@H](COP(=O)(O)O)[C@H]2OC(Cc3ccccc3)O[C@H]21 (stereo partly drawn)', 'inactive');

###

TARGET UNDER TEST: P2Y purinoceptor 6 (Homo sapiens, UniProt Q15077)
RUN DESCRIPTION: Agonist activity at P2Y6 receptor expressed in human 1321 cells by calcium mobilization assay
Assay type: functional, cell-based
Consider the following compounds; for each one, report its EC50.
Hi! Could you send only the number? It should be in µM, unit omitted.

# return recorded EC50 for entry O=c1ccn([C@@H]2O[C@H](COP(=O)(O)OP(=O)(O)OP(=O)(O)OC[C@@H]3O[C@H](n4ccc(=O)[nH]c4=O)[C@@H](O)[C@H]3O)[C@@H](O)[C@H]2O)c(=O)[nH]1 0.4

Supply measured EC50 of O=c1ccn([C@@H]2O[C@H](COP(=O)(O)OP(=O)(O)OP(=O)(O)OC[C@@H]3O[C@H](n4ccc(=O)[nH]c4=O)[C@@H](O)[C@H]3O)[C@H]3OC(Cc4ccccc4)O[C@H]32)c(=O)[nH]1 (stereo not given in full) in your reply. 0.154

Kindly indicate its recorded EC50. Item: O=C(Nc1ccccc1)Nc1ncnc2c1ncn2[C@@H]1O[C@H](COP(=O)(O)OP(=O)(O)O)[C@@H](O)[C@H]1O 9.75

Give reported EC50 value for O=c1ccn([C@@H]2O[C@H](COP(=O)(O)OP(=O)(O)OP(=O)(O)OP(=O)(O)OC[C@@H]3O[C@H](n4ccc(=O)[nH]c4=O)[C@@H](O)[C@H]3O)[C@@H](O)[C@H]2O)c(=O)[nH]1 18.6

Using the record for CCCC1O[C@@H]2[C@H](O1)[C@@H](COP(=O)(O)OP(=O)(O)OP(=O)(O)OP(=O)(O)OC[C@@H]1O[C@H](n3ccc(=O)[nH]c3=O)[C@@H](O)[C@H]1O)O[C@H]2n1ccc(=O)[nH]c1=O (stereo not given in full) , state its measured EC50. 30

###

TARGET UNDER TEST: P2Y purinoceptor 12 (Homo sapiens) (UniProt Q9H244)
Sequence (Q9H244 whole entry): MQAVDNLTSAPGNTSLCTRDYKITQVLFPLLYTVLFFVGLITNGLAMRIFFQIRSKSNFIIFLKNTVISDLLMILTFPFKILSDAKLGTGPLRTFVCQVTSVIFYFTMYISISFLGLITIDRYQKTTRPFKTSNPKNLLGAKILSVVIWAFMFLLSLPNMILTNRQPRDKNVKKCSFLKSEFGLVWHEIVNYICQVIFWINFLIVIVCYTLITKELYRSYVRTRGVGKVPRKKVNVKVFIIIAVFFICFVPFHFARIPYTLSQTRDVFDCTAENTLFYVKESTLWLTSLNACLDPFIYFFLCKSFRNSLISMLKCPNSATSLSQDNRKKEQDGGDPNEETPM
RUN DESCRIPTION: Antagonist activity at P2Y12 receptor assessed as inhibition of ADP-induced human platelet aggregation by washed platelet assay at 100 uM
Assay type: functional
OUTCOME MEASURE: inhibition (%)
Give a bare numeral; the unit % is implied.

Specify inhibition for Nc1ncnc2c1ncn2[C@@H]1O[C@H](COP(=O)(O)OP(=O)(O)OP(=O)(O)OP(=O)(O)OC[C@@H]2O[C@H](n3cnc4c(N)ncnc43)[C@@H](O)[C@H]2O)[C@@H](O)[C@H]1O and stop. 63

Kindly indicate its recorded inhibition. Item: Nc1ccn([C@@H]2O[C@H](COP(=O)(O)OP(=O)(O)OP(=O)(O)OP(=O)(O)OC[C@@H]3O[C@H](n4ccc(=O)[nH]c4=O)[C@@H](O)[C@H]3O)[C@H]3OC(Cc4ccccc4)O[C@H]32)c(=O)n1 (stereo not given in full) 46

For the compound CNc1ccccc1C(=O)O[C@H]1[C@@H](O)[C@H](COP(=O)(O)OP(=O)(O)OP(=O)(O)OP(=O)(O)OC[C@H]2O[C@@H](n3ccc(=O)[nH]c3=O)[C@H](O)[C@@H]2O)O[C@@H]1n1ccc(=O)[nH]c1=O , give its reported inhibition. 46

State its inhibition for this compound: Nc1ncnc2c1ncn2[C@@H]1O[C@H](COP(=O)(O)OP(=O)(O)OP(=O)(O)O)[C@@H](O)[C@H]1O 63

Input Nc1ncnc2c1ncn2[C@@H]1O[C@H](COP(=O)(O)O)[C@H]2O[C@@H](Cc3ccccc3)O[C@H]21 , output reported inhibition. 47

###

TARGET UNDER TEST: P2Y purinoceptor 2 (Homo sapiens, UniProt P41231)
RUN DESCRIPTION: Agonist activity at P2Y2 receptor expressed in human 1321 cells at 100 uM by calcium mobilization assay
Type: functional, cell-based
Active and inactive are the calls of the source. No cut-off for these calls is given here.
OUTCOME MEASURE: Activity

INSERT INTO measurements (compound, endpoint_result) VALUES
  ('O=C(Nc1ccc(F)cc1)Nc1ccn([C@@H]2O[C@H](COP(=O)(O)OP(=O)(O)OP(=O)(O)OP(=O)(O)OC[C@@H]3O[C@H](n4ccc(=O)[nH]c4=O)[C@@H](O)[C@H]3O)[C@H]3O[C@@H](Cc4ccccc4)O[C@H]32)c(=O)n1', '> 5%'),
  ('O=C(Nc1ccc(F)cc1)Nc1ccn([C@@H]2O[C@H](COP(=O)(O)O)[C@H]3O[C@@H](Cc4ccccc4)O[C@H]32)c(=O)n1', 'inactive'),
  ('Nc1ncnc2c1ncn2[C@@H]1O[C@H](COP(=O)(O)O)[C@H]2O[C@@H](Cc3ccccc3)O[C@H]21', 'inactive'),
  ('CCNC(=O)Nc1ncnc2c1ncn2[C@@H]1O[C@H](COP(=O)(O)O)C2OC(/C=C/c3ccccc3)OC21 (single isomer, unassigned)', 'inactive');

###

TARGET UNDER TEST: P2Y purinoceptor 2 (Homo sapiens)
RUN DESCRIPTION: Agonist activity at P2Y2 receptor expressed in human 1321 cells at 100 uM by calcium mobilization assay
Assay type: functional, cell-based
Active and inactive are the calls of the source. The calls are words filed in the database; no cut-off is given here.
OUTCOME MEASURE: Activity

INSERT INTO measurements (compound, endpoint_result) VALUES
  ('O=c1ccn([C@@H]2O[C@H](COP(=O)(O)OP(=O)(O)OP(=O)(O)OC[C@@H]3O[C@H](n4ccc(=O)[nH]c4=O)[C@@H](O)[C@H]3O)[C@H]3OC(Cc4ccccc4)O[C@H]32)c(=O)[nH]1 (stereo partly drawn)', 'inactive'),
  ('CCCCCCNC(=O)Nc1ncnc2c1ncn2[C@@H]1O[C@H](COP(=O)(O)O)[C@H]2OC(Cc3ccccc3)O[C@H]21 (stereo partly drawn)', 'inactive'),
  ('CCNC(=O)Nc1ncnc2c1ncn2[C@@H]1O[C@H](COP(=O)(O)O)[C@H]2OC(Cc3ccccc3)O[C@H]21 (stereo partly drawn)', 'inactive');

###

TARGET UNDER TEST: P2Y purinoceptor 6 (Homo sapiens)
RUN DESCRIPTION: Agonist activity at P2Y6 receptor expressed in human 1321 cells at 100 uM by calcium mobilization assay
Assay type: functional, cell-based
The source made the active and inactive calls. The calls are words filed in the database; no cut-off is given here.
OUTCOME MEASURE: Activity

Examples with answers:
INSERT INTO measurements (compound, endpoint_result) VALUES
  ('CCNC(=O)Nc1ncnc2c1ncn2[C@@H]1O[C@H](COP(=O)(O)O)C2O[C@H](/C=C/c3ccccc3)OC21 (single isomer, unassigned)', 'inactive'),
  ('CCCCCCCC1O[C@@H]2[C@H](O1)[C@@H](COP(=O)(O)OP(=O)(O)OP(=O)(O)OP(=O)(O)OC[C@@H]1O[C@H](n3ccc(=O)[nH]c3=O)[C@@H](O)[C@H]1O)O[C@H]2n1ccc(=O)[nH]c1=O (stereo not given in full)', '> 5%'),
  ('CCCCCCNC(=O)Nc1ncnc2c1ncn2[C@@H]1O[C@H](COP(=O)(O)O)C2OC(C#Cc3ccccc3)OC21 (single isomer, unassigned)', 'inactive'),
  ('CNc1ccccc1C(=O)O[C@H]1[C@@H](O)[C@H](COP(=O)(O)OP(=O)(O)OP(=O)(O)OP(=O)(O)OC[C@H]2O[C@@H](n3ccc(=O)[nH]c3=O)[C@H](O)[C@@H]2O)O[C@@H]1n1ccc(=O)[nH]c1=O', '> 5%');

Tell us which Activity value is on record for O=c1ccn([C@@H]2O[C@H](COP(=O)(O)OP(=O)(O)OP(=O)(O)OP(=O)(O)OC[C@@H]3O[C@H](n4ccc(=O)[nH]c4=O)[C@@H](O)[C@H]3O)[C@@H]3OC(c4ccccc4)O[C@H]32)c(=O)[nH]1 (stereo not given in full) > 5%
